# system_name: UniProtKB P31391
# assay_details: Inhibition of somatostatin binding to sst4 receptor at 1 uM in radioligand binding assay ([125I]Tyr11-SRIF) in membranes from CHO-K1 cells
# Type: cell membranes
recorded_metric: inhibition (%)

(A) NCCCC[C@H]1NC(=O)[C@@H](Cc2c[nH]c3ccccc23)Sc2ccccc2CN(Cc2cccc3ccccc23)C1=O
(B) NCCCC1CCCN2C(=O)[C@@H](Cc3c[nH]c4ccccc34)SCCN(Cc3cccc4ccccc34)C(=O)C12 (stereo not given in full)
Select one. Lower inhibition: A or B Use the label to indicate which entry you chose.
A
(A: 41%, B: 99%)

---

# system_name: UniProtKB P30874
# Sequence (P30874 whole entry): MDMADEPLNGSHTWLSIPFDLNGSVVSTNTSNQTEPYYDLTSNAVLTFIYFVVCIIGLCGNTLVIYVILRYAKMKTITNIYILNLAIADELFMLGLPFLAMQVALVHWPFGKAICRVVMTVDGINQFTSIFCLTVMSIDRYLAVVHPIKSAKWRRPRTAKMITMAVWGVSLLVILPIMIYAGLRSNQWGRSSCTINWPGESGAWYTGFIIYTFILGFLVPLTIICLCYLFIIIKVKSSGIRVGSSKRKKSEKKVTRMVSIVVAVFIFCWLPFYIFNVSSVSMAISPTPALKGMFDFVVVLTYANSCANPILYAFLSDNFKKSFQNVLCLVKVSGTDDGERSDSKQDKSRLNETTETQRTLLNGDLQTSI
# assay_details: Inhibition of somatostatin binding to sst2 receptor at 1 uM in radioligand binding assay ([125I]Tyr11-SRIF) in membranes from CHO-K1 cells
# Assay type: cell membranes
recorded_metric: inhibition (%)

(I) NCC[C@@H]1C[C@@H]2C(=O)N(Cc3cccc4ccccc34)CCS[C@H](Cc3c[nH]c4ccccc34)C(=O)N2C1
(II) NCCCC[C@H]1NC(=O)[C@@H](Cc2c[nH]c3ccccc23)SCCN(Cc2cccc3ccccc23)C1=O
Name the one with the greater inhibition value, either I or II as given. Use the label to indicate which entry you chose.
II

(P) NCCCC[C@H]1NC(=O)[C@@H](Cc2c[nH]c3ccccc23)Sc2ccccc2CN(Cc2cccc3ccccc23)C1=O
(Q) NCCCC1CCCN2C(=O)[C@@H](Cc3c[nH]c4ccccc34)SCCN(Cc3cccc4ccccc34)C(=O)C12 (stereo not given in full)
Name the one with the greater inhibition value, either P or Q as given. Use the label to indicate which entry you chose.
Q

---

# system_name: Somatostatin receptor type 4 (Homo sapiens)
# Sequence (P31391 whole entry): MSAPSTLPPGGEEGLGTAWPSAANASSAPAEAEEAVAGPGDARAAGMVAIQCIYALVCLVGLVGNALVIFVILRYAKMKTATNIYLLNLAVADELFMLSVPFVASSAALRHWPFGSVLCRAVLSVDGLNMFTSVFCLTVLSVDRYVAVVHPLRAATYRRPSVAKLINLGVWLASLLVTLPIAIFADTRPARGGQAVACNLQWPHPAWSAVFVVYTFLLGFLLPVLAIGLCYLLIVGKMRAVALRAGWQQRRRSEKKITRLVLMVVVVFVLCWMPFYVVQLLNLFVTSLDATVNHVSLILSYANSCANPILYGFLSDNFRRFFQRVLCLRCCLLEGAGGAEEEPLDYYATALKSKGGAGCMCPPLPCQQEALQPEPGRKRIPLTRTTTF
recorded_metric: pIC50
Please treat pIC50 as minus the base-10 logarithm of the molar concentration.

Form field, pIC50 with Somatostatin receptor type 4 (Homo sapiens), item NCCCC[C@H]1NC(=O)[C@@H](Cc2c[nH]c3ccccc23)SCCN(Cc2cccc3ccccc23)C1=O : 5.98

---

# system_name: UniProt:P32745
# Sequence (P32745 whole entry): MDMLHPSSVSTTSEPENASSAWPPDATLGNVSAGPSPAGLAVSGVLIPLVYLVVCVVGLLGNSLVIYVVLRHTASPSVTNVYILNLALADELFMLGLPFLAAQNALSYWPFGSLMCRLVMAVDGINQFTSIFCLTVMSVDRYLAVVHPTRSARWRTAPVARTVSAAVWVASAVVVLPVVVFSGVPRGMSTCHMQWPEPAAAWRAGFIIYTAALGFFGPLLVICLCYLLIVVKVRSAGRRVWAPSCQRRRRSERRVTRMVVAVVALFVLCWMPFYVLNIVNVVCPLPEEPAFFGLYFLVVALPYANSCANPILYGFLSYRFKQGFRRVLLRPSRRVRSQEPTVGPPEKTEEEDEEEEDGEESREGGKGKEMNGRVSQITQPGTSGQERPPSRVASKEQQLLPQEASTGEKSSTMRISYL
# assay_details: Inhibition of somatostatin binding to sst3 receptor at 1 uM in radioligand binding assay ([125I]Tyr11-SRIF) in membranes from CHO-K1 cells
# Type: cell membranes
recorded_metric: inhibition (%)

(a) NCCCC1CCCN2C(=O)[C@@H](Cc3c[nH]c4ccccc34)SCCN(Cc3cccc4ccccc34)C(=O)C12 (stereo not given in full)
(b) NCCCC[C@H]1NC(=O)[C@@H](Cc2c[nH]c3ccccc23)Sc2ccccc2CN(Cc2cccc3ccccc23)C1=O
Select one. Lower inhibition: a or b Use the label to indicate which entry you chose.
b

(A) NCC[C@H]1C[C@@H]2C(=O)N(Cc3cccc4ccccc34)CCS[C@H](Cc3c[nH]c4ccccc34)C(=O)N2C1
(B) NCCCC[C@H]1NC(=O)[C@@H](Cc2c[nH]c3ccccc23)SCCN(Cc2cccc3ccccc23)C1=O
Select one. Lower inhibition: A or B Use the label to indicate which entry you chose.
A
(A: 16%, B: 42%)

---

# system_name: UniProtKB P31391
# assay_details: Inhibition of somatostatin binding to sst4 receptor at 1 uM in radioligand binding assay ([125I]Tyr11-SRIF) in membranes from CHO-K1 cells
# Type: cell membranes
recorded_metric: inhibition (%)

# inhibition of NCC[C@H]1C[C@@H]2C(=O)N(Cc3cccc4ccccc34)CCS[C@H](Cc3c[nH]c4ccccc34)C(=O)N2C1 = 17

(1) NCCCC[C@H]1NC(=O)[C@@H](Cc2c[nH]c3ccccc23)SCCN(Cc2cccc3ccccc23)C1=O
(2) NCC[C@@H]1C[C@@H]2C(=O)N(Cc3cccc4ccccc34)CCS[C@H](Cc3c[nH]c4ccccc34)C(=O)N2C1
Select one. Lower inhibition: 1 or 2 Use the label to indicate which entry you chose.
2
